assayed_system: T1, human EphB2 (Homo sapiens, UniProt P29323)
T1 construct: a protein of the extracellular region of each human Eph receptor fused with the SEAP protein and the His tag; made in house; host or cells: Expi293F cells
T1 sequence (P29323 19-543 limits assumed): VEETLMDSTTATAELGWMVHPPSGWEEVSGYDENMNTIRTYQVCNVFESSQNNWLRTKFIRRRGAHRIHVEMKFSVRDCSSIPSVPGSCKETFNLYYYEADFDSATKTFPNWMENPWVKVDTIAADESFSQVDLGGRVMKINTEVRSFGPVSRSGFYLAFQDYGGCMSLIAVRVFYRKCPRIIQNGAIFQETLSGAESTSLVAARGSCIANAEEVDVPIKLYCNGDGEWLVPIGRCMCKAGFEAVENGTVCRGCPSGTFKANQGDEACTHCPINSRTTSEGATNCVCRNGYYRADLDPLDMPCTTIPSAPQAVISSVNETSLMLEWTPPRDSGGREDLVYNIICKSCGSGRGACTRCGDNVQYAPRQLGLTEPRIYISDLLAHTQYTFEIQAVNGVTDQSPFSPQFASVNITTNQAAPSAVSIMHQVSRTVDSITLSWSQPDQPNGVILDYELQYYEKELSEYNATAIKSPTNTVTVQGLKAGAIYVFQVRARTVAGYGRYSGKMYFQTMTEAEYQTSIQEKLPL
assay: Selectivity ELISA of humanized antibodies for human Eph receptor
Assay type: binding
measurement_context: coated protein 1 nM
test_readout: hEphB2-SEAP-: absorbance at 450 nm, percentage with respect to hEphA4-SEAP-His as 100% (%)
// return numeric value only (unit: %, not printed)

Use these answered entries as a reference point.
molecule	readout_value
81 (antibody, V domains shown, constant regions without entry; synthetic humanized antibody light chain variable region sequence; synthetic humanized antibody heavy chain variable region sequence) VL: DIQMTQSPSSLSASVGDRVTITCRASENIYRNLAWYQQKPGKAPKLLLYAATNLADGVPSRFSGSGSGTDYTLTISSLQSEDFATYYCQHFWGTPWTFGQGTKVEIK VH: QVQLVQSGSELKKPGASVKVSCKASGYTFTDYSMHWVRQAPGQGLEWMGWINTETGEPTYAQGFTGRFVFSLDTSVSTAYLQISSLKAEDTAVYYCARIPLYYYGSRYWYFDVWGQGTTVTVSS	5.0
140 (antibody, V domains shown, synthetic humanized antibody heavy chain variable region sequence; synthetic humanized antibody light chain variable region sequence) VH: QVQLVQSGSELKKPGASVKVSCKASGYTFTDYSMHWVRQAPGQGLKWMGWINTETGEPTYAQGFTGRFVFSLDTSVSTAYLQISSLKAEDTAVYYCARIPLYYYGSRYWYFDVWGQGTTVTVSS VL: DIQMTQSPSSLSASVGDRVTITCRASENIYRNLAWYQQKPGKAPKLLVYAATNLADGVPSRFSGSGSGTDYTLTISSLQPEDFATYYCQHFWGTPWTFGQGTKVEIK	5.3
96 (antibody, V domains shown, constant regions without entry; synthetic humanized antibody light chain variable region sequence; synthetic humanized antibody heavy chain variable region sequence) VL: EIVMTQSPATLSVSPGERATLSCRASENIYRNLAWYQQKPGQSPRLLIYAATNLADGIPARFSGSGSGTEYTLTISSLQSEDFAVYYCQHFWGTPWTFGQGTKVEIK VH: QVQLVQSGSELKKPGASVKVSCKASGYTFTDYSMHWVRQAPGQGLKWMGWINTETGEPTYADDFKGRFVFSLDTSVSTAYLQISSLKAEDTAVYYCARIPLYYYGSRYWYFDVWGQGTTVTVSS	5.5
157 (antibody, V domains shown, synthetic humanized antibody heavy chain variable region sequence; synthetic humanized antibody light chain variable region sequence) VH: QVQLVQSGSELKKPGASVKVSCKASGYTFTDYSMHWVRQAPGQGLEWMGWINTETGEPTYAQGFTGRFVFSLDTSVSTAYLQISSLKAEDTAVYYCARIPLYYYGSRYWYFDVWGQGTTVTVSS VL: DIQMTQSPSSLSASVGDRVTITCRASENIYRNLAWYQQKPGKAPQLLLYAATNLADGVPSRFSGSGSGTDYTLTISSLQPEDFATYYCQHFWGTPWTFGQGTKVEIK	6.2
93 (antibody, V domains shown, constant regions without entry; synthetic humanized antibody light chain variable region sequence; synthetic humanized antibody heavy chain variable region sequence) VL: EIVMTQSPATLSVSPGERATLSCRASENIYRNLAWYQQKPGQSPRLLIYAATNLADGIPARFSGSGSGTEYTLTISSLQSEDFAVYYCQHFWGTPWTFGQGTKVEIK VH: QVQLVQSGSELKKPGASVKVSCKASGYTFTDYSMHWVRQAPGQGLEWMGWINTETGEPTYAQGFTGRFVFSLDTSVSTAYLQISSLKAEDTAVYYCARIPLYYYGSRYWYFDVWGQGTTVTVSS	5.0
134 (antibody, V domains shown, synthetic humanized antibody heavy chain variable region sequence; synthetic humanized antibody light chain variable region sequence) VH: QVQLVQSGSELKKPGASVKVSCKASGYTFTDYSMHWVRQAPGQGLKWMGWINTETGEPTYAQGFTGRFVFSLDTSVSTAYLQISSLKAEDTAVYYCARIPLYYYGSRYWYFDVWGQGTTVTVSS VL: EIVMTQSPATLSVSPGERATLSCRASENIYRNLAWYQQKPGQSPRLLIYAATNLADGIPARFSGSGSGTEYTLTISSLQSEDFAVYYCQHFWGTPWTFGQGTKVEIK	5.1

Would you kindly look at the next entry?
Documented hEphB2-SEAP-: absorbance at 450 nm, percentage with respect to hEphA4-SEAP-His as 100% of 88 (antibody, V domains shown, constant regions without entry; synthetic humanized antibody light chain variable region sequence; synthetic humanized antibody heavy chain variable region sequence) VL: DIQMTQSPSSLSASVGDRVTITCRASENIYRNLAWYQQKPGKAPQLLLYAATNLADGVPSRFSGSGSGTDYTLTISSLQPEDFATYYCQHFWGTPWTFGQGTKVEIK VH: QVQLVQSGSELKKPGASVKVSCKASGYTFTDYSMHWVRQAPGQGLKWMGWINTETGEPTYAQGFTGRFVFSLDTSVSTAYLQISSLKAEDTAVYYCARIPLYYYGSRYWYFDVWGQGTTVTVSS : 6.0
